tested target: Cellular tumor antigen p53 (Homo sapiens)
procedure summary: TOX21_p53_BLA_p4_ratio: Tox21 HCT-116 p53 Agonism Beta-lactamase Assay, Ratio, Phase 4 (AID 2283601)
Records with an inconclusive call do not appear. Active and inactive are the calls of the source. How the source made its calls: active means hit-call score of the fitted dose curve at least 0.9, where 1 is the maximum; inconclusive means response in the unintended direction; inactive means score below 0.9.
Classes used: active, inactive

compound	assigned label
Cc1[nH]cnc1C[C@H]1CCc2c(C)c3ccccc3n2C1=O	inactive
O=C1CCCCCN1	inactive
CC[C@H]1OC(=O)[C@H](C)[C@@H](O[C@H]2C[C@@](C)(OC)[C@@H](O)[C@H](C)O2)[C@H](C)[C@@H](O[C@@H]2O[C@H](C)C[C@H](N(C)C)[C@H]2O)[C@](C)(O)C[C@@H](C)C(=O)[C@H](C)[C@@H](O)[C@]1(C)O	inactive
NC(=O)NO	inactive
COc1ccc(/C=C/S(=O)(=O)NC(=O)c2ccc(C)cc2Cl)cc1	active
COC(=O)c1ccccc1O	inactive
O=C(O)CC(O)C(=O)O (configuration not stated)	inactive
O=C(O)c1cccc(N(Cc2cccnc2)c2ccc(OC(F)F)c(OC(F)F)c2)c1	inactive
CCOC(=O)COc1ccc2c(c1)CC(NCC(O)c1cccc(Cl)c1)CC2 (configuration not stated)	active
C[C@](N)(Cc1ccc(O)c(O)c1)C(=O)O	inactive
CCc1cc(SCc2sc(-c3ccc(C(F)(F)F)cc3)nc2CN2CCN(c3ccc(OC)cc3)CC2)ccc1OCC(=O)O	active
Cc1ccc(N)cc1O	inactive
CCCCCCCCO	inactive
O=C(O)c1cccc(Oc2ccccc2)c1	inactive
CN(C)c1ccc(Cc2ccc(N(C)C)cc2)cc1	inactive
CCCCC(CC)COC(=O)c1ccc(C(=O)OCC(CC)CCCC)cc1 (configuration not stated)	inactive
CN(C)c1ccc(N=NS(=O)(=O)O)cc1	inactive

----------
Read-out: Thrombomodulin, THBD (gene 7056)
procedure summary: BSK_CASM3C_Thrombomodulin: BioMAP Diversity Plus: CASM3C Assay for Thrombomodulin Biomarker Activity (AID 2283051);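 further: thrombomodulin protein level measured by ELISA 24 h after dosing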
conditions used: primary human coronary artery smooth muscle cells; actives raise or lower the signal
Active and inactive are the calls of the source. Rule for the calls: active = hit-call score of the fitted dose curve at least 0.9, where 1 is the maximum; inactive = score below 0.9.
Labels: active, inactive

compound	assigned label
CCOC(=O)COc1ccc2c(c1)CC(NCC(O)c1cccc(Cl)c1)CC2 (stereo not drawn)	inactive
CC/C(=C\C(=N/O)C(N)=O)C(C)[N+](=O)[O-] (stereo not drawn)	inactive
CC(O)CN(CCN(CC(C)O)CC(C)O)CC(C)O (stereo not drawn)	inactive
O=C(NS(=O)(=O)/C=C/c1ccccc1)c1ccc(F)cc1Cl	inactive
CC(C)CCO	inactive
Cc1ccc(S(=O)(=O)O)cc1C	inactive
Cn1c(=O)c2c(ncn2C)n(C)c1=O	inactive
O=C(O)CC(O)C(=O)O (stereo not drawn)	inactive
CC(C)CC(C)(O)C#CC(C)(O)CC(C)C (stereo not drawn)	inactive
Cn1c(=O)cc(Oc2ccc(F)cc2F)c2cnc(NCC(C)(C)O)nc21	inactive
CCOC(=O)c1ccc(C2CCC(NC[C@H](O)COc3ccc(O)c(NS(C)(=O)=O)c3)CC2)cc1 (stereo partly drawn)	active
Cc1ccc(O)cc1	inactive
O=C(O)c1cccc(Oc2ccccc2)c1	inactive

----------
System: rat Norepinephrine Transporter (NET), gene 83511
procedure summary: NVS_TR_rNET: NovaScreen (NVS) Transporter Assay for rat Norepinephrine Transporter (NET) (AID 2283373)
Results filed as inconclusive are left out. Activity calls are given as the source filed them. How the source made its calls: active means hit-call score of the fitted dose curve at least 0.9, where 1 is the maximum; inconclusive means response in the unintended direction; inactive means score below 0.9.

compound	AC50
COc1cccc(-c2ccc(/C=C\CN3CCCCCC3)cc2Cl)c1	9.83 µM (active)
CC[C@H]1CC[C@H](NCc2cc3c(cc2OC)[C@H]2C[C@H]2C(=O)N3C)[C@H](c2ccccc2)N1	25 µM (active)
CCOC(=O)c1ccc(C2CCC(NC[C@H](O)COc3ccc(O)c(NS(C)(=O)=O)c3)CC2)cc1 (some centres undefined)	7.29 µM (active)
Cc1[nH]cnc1C[C@H]1CCc2c(C)c3ccccc3n2C1=O	8.58 µM (active)

----------
tested target: PGR (gene 5241) (UniProt P06401)
Sequence (P06401 whole entry, looked up): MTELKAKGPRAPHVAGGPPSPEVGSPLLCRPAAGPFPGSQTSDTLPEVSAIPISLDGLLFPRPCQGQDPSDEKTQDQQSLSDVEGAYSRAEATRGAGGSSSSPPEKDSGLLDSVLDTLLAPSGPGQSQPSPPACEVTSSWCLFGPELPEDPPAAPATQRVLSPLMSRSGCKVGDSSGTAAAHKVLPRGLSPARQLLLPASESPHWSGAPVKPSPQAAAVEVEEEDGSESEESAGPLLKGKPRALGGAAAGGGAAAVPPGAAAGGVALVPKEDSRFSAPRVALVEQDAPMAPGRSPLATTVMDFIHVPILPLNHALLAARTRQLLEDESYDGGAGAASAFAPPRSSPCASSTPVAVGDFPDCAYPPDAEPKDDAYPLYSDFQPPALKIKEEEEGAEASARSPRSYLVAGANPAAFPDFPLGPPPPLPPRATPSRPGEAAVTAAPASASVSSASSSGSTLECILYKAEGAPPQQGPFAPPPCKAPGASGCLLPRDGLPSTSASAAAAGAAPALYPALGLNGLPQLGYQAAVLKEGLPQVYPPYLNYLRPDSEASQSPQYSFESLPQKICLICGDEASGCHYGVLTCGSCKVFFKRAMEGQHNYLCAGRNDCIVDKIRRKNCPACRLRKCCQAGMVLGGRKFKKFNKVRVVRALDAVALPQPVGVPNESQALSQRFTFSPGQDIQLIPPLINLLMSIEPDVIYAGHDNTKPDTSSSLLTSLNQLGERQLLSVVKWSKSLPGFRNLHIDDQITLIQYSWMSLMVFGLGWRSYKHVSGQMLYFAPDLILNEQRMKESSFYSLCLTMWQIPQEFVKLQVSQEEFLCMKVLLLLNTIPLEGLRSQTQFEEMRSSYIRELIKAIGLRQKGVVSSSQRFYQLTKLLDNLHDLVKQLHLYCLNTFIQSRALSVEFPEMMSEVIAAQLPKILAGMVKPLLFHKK
procedure summary: NVS_NR_hPR: NovaScreen (NVS) Nuclear Receptor Binding Assay for human Progestron Receptor (PR) (AID 2283360);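 further: active means loss of bound radioligand signal versus DMSO baseline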
Results filed as inconclusive are left out. The source made the active and inactive calls. The calls were made as follows: active = hit-call score of the fitted dose curve at least 0.9, where 1 is the maximum; inconclusive = response in the unintended direction; inactive = score below 0.9.
Labels: t = active, f = inactive

molecule	tested target	assigned label
CCc1cc(SCc2sc(-c3ccc(C(F)(F)F)cc3)nc2CN2CCN(c3ccc(OC)cc3)CC2)ccc1OCC(=O)O	PGR (gene 5241) (UniProt P06401)	f
O=c1[nH]c2ccc(S(=O)CCN3CCC(Cc4ccc(F)cc4)CC3)cc2o1 (configuration not stated)	PGR (gene 5241) (UniProt P06401)	f
O=C(OC[C@H]1O[C@@H](OC(=O)c2cc(O)c(O)c(OC(=O)c3cc(O)c(O)c(O)c3)c2)[C@H](OC(=O)c2cc(O)c(O)c(OC(=O)c3cc(O)c(O)c(O)c3)c2)[C@@H](OC(=O)c2cc(O)c(O)c(OC(=O)c3cc(O)c(O)c(O)c3)c2)[C@@H]1OC(=O)c1cc(O)c(O)c(OC(=O)c2cc(O)c(O)c(O)c2)c1)c1cc(O)c(O)c(OC(=O)c2cc(O)c(O)c(O)c2)c1	PGR (gene 5241) (UniProt P06401)	t
CNCc1ccc(NC(=O)c2c[nH]c3c2C(=O)CCC3)cc1	PGR (gene 5241) (UniProt P06401)	f
O=C(O)c1cccc(N(Cc2cccnc2)c2ccc(OC(F)F)c(OC(F)F)c2)c1	PGR (gene 5241) (UniProt P06401)	t
C1N2CN3CN1CN(C2)C3	PGR (gene 5241) (UniProt P06401)	f
Cc1ccc(S(=O)(=O)O)cc1C	PGR (gene 5241) (UniProt P06401)	f

----------
procedure summary: NVS_IC_rCaDHPRCh_L: NovaScreen (NVS) Ion Channel Assay for rat Calcium Channel, Type L, Dihydropyridine Site (CaDHPRCh_L) (AID 2283320)
Records with an inconclusive call do not appear. Activity calls are given as the source filed them. Rule for the calls: active = hit-call score of the fitted dose curve at least 0.9, where 1 is the maximum; inconclusive = response in the unintended direction; inactive = score below 0.9.
# AC50 per record follows

compound	AC50
CCOC(=O)c1ccc(C2CCC(NC[C@H](O)COc3ccc(O)c(NS(C)(=O)=O)c3)CC2)cc1 (stereo not given in full)	18.4 µM (active)
COc1cccc(-c2ccc(/C=C\CN3CCCCCC3)cc2Cl)c1	0.555 µM (active)
CCc1cc(SCc2sc(-c3ccc(C(F)(F)F)cc3)nc2CN2CCN(c3ccc(OC)cc3)CC2)ccc1OCC(=O)O	15.9 µM (active)
Cc1[nH]cnc1C[C@H]1CCc2c(C)c3ccccc3n2C1=O	1.5 µM (active)
CCn1nc(Cc2ccccc2)cc1C1CCN(C[C@H]2C[C@H](N(C)[C@@H](C(=O)O)C(C)C)C[C@@H]2c2cccc(F)c2)CC1	4.21 µM (active)

----------
Read-out: Tissue plasminogen activator (tPA), PLAT (gene 5327)
procedure summary: BSK_BE3C_tPA: BioMAP Diversity Plus: BE3C Assay for Tissue plasminogen activator (tPA) Biomarker Activity (AID 2283041);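 on Outcome: tPA level quantified by ELISA one day after compound addition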
conditions used: primary human bronchial epithelial cells; actives raise or lower the signal
Active and inactive are the calls of the source. The calls were made as follows: active = hit-call score of the fitted dose curve at least 0.9, where 1 is the maximum; inactive = score below 0.9.
Outcome codes: active, inactive

molecule	assigned label
O=C(OC[C@H]1O[C@@H](OC(=O)c2cc(O)c(O)c(OC(=O)c3cc(O)c(O)c(O)c3)c2)[C@H](OC(=O)c2cc(O)c(O)c(OC(=O)c3cc(O)c(O)c(O)c3)c2)[C@@H](OC(=O)c2cc(O)c(O)c(OC(=O)c3cc(O)c(O)c(O)c3)c2)[C@@H]1OC(=O)c1cc(O)c(O)c(OC(=O)c2cc(O)c(O)c(O)c2)c1)c1cc(O)c(O)c(OC(=O)c2cc(O)c(O)c(O)c2)c1	active
COC(=O)c1c(Cl)c(Cl)c(C(=O)OC)c(Cl)c1Cl	inactive
CC[C@H]1OC(=O)[C@H](C)[C@@H](O[C@H]2C[C@@](C)(OC)[C@@H](O)[C@H](C)O2)[C@H](C)[C@@H](O[C@@H]2O[C@H](C)C[C@H](N(C)C)[C@H]2O)[C@](C)(O)C[C@@H](C)C(=O)[C@H](C)[C@@H](O)[C@]1(C)O	inactive
CC[C@H]1CC[C@H](NCc2cc3c(cc2OC)[C@H]2C[C@H]2C(=O)N3C)[C@H](c2ccccc2)N1	inactive
COc1ccc2sc(C(=O)Nc3nnn[nH]3)c(OC(C)C)c2c1	active
O=C(O)c1cccc(Oc2ccccc2)c1	inactive
Cc1ccc(O)cc1	inactive
Cn1c(=O)cc(Oc2ccc(F)cc2F)c2cnc(NCC(C)(C)O)nc21	inactive
Cn1c(=O)c2c(ncn2C)n(C)c1=O	inactive
Cc1c(-c2cccnc2)c2ccccc2n1CCCCC(=O)O	inactive
O=C(NS(=O)(=O)/C=C/c1ccccc1)c1ccc(F)cc1Cl	inactive
CC(=O)OCCC(C)C	inactive
O=P(OC(CCl)CCl)(OC(CCl)CCl)OC(CCl)CCl	inactive
COC(=O)CC(=O)OC	inactive
Nc1cccc(N)c1	inactive
O=C(O)CC(O)C(=O)O (stereo not drawn)	inactive
COc1cccc(-c2ccc(/C=C\CN3CCCCCC3)cc2Cl)c1	active
CC/C(=C\C(=N/O)C(N)=O)C(C)[N+](=O)[O-] (stereo not drawn)	inactive
